Biological target: PERK (Homo sapiens)
Construct: GST-PERK (536-1116) cytoplasmic domain was purchased from Invitrogen; purchased Invitrogen PV5106
Sequence (Q9NZJ5 536-1116): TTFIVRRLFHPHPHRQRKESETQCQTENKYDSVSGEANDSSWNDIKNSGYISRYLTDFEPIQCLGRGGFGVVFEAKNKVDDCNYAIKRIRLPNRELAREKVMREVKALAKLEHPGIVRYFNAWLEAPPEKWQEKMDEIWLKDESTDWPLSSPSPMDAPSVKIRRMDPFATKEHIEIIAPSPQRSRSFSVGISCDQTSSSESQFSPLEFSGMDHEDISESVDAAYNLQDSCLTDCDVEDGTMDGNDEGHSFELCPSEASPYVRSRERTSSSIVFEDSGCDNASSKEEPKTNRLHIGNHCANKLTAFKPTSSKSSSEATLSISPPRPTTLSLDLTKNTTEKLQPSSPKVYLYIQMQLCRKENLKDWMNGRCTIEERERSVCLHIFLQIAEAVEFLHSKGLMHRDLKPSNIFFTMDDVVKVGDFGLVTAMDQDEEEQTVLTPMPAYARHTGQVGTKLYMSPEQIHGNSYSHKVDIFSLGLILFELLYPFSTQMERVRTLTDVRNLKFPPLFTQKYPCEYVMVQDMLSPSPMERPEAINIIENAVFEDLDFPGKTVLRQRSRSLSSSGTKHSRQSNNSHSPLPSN
Test: PKR-like Endoplasmic Reticulum Kinase (PERK) Assay (HTRF Format)
Assay type: biochemical
Conditions: average, in at least one set of experimental runs; read-out: average pIC50 value against PERK (converted)
measured_property: IC50

1) Cc1cc(F)cc(CC(=O)N2CCc3cc(-c4nn(C)c5ncnc(N)c45)ccc32)c1    ≤ 0.316 nM
2) Cn1cc(-c2ccc3c(c2)CCN3C(=O)Cc2cc(F)cc(F)c2)c2c(N)ncnc21    ≤ 1 nM
3) Cc1cccc(CC(=O)N2CCc3cc(-c4cn(C)c5ncnc(N)c45)ccc32)c1F    ≤ 0.316 nM
4) Cn1cc(-c2ccc3c(c2F)CCN3C(=O)Cc2cc(F)ccc2F)c2c(N)ncnc21    ≤ 0.316 nM

Fill in IC50 for "COc1cccc(CC(=O)N2CCc3cc(-c4csc5ccnc(N)c45)ccc32)c1" tested with PERK (Homo sapiens).
≤ 2.51 nM

Fill in IC50 for "Nc1ncc(-c2cn[nH]c2)c2scc(-c3ccc4c(c3)CCN4C(=O)Cc3ccccc3)c12" tested with PERK (Homo sapiens).
≤ 1 nM

---

molecular target: PERK (Homo sapiens, UniProt Q9NZJ5); construct: GST-PERK (536-1116) cytoplasmic domain was purchased from Invitrogen; purchased Invitrogen PV5106; assay: PKR-like Endoplasmic Reticulum Kinase (PERK) Assay (HTRF Format); format: biochemical; settings: average, in at least one set of experimental runs; read-out: average pIC50 value against PERK (converted)
measured_property: IC50

These solved cases illustrate the format of a correct answer.
1. Cn1cc(-c2ccc3c(c2F)CCN3C(=O)Cc2ccc(F)cc2)c2c(N)ncnc21    ≤ 0.316 nM
2. Cc1cccc(CC(=O)N2CCc3cc(-c4cn(C5CCNCC5)c5ncnc(N)c45)ccc32)c1    ≤ 1 nM
3. Cc1cccc(CC(=O)N2CCc3cc(-c4cn(C)c5ncnc(N)c45)ccc32)c1    ≤ 0.316 nM
4. Cc1ccccc1CC(=O)N1CCc2cc(-c3cn(C)c4ncnc(N)c34)ccc21    ≤ 0.316 nM
5. Cc1cccc(CC(=O)N2CCc3cc(-c4cn(C5CNC5)c5ncnc(N)c45)ccc32)c1    ≤ 1 nM
6. Cn1nc(-c2ccc3c(c2)CCN3C(=O)Cc2cccc(Cl)c2)c2c(N)ncnc21    ≤ 2.51 nM

Name the recorded IC50 of the molecule listed here: "Cc1cccc(CC(=O)N2CCc3cc(-c4cn(C)c5ncnc(N)c45)ccc32)c1C"
≤ 1 nM

Name the recorded IC50 of the molecule listed here: "Cc1cccc(CC(=O)N2CCc3cc(-c4nn(C(C)C)c5ncnc(N)c45)ccc32)c1"
≤ 2.51 nM

Name the recorded IC50 of the molecule listed here: "Nc1ncnc2c1c(-c1ccc3c(c1)CCN3C(=O)Cc1cccc(C(F)(F)F)c1)cn2CCN1CCOCC1"
≤ 0.316 nM

Name the recorded IC50 of the molecule listed here: "Nc1ncnc2[nH]cc(-c3ccc4c(c3)CCN4C(=O)Cc3cccc(C(F)(F)F)c3)c12"
≤ 0.316 nM

Name the recorded IC50 of the molecule listed here: "Cc1ccc(C)c(CC(=O)N2CCc3cc(-c4nn(C)c5ncnc(N)c45)ccc32)c1"
≤ 0.316 nM

Name the recorded IC50 of the molecule listed here: "Cn1nc(N)c2c(-c3ccc4c(c3)CCN4C(=O)Cc3cccc(C(F)(F)F)c3)cncc21"
≤ 1 nM

Name the recorded IC50 of the molecule listed here: "Nc1ncc(-c2ccncc2)c2scc(-c3ccc4c(c3)CCN4C(=O)Cc3ccccc3)c12"
≤ 1 nM

Name the recorded IC50 of the molecule listed here: "Nc1ncnc2scc(-c3ccc4c(c3)CCN4C(=O)Cc3cc(F)ccc3F)c12"
≤ 1 nM
